Target: T1, Fpg (formamidopyrimidine-DNA glycosylase) (Escherichia coli, UniProt P05523 2-269)
T1 sequence: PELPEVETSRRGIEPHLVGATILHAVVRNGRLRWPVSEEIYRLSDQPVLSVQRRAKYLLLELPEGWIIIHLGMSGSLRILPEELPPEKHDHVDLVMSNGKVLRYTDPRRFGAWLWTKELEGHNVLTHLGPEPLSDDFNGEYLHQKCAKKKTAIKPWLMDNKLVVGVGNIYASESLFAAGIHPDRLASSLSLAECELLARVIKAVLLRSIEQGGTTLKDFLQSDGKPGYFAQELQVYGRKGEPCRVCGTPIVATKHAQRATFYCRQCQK
Assay: MST; MST: 50 mM Tris-HCl pH 7.5, 50 mM KCl, 1 mM EDTA, 1 mM DTT, 7% glycerol, 25 C, 10 min, 0.5 uM DNA; authors call Kd values estimates only
Conditions: protein: recombinant; tags: none (native form without tags); label: 5'-FAM on strand 2; blunt
QUANTITY_KIND: Kd

What does the record list as Kd for C/G (dsDNA) DNA 1: GCTCACGTACAGAGCTG DNA 2: CAGCTCTGTACGTGAGC ?
1.6 µM
